# inhibition at 15 µM listing for each entry below
# measurement target: HLA-A1101 (Homo sapiens, UniProt P04439, A114D/D185E/E176A/F33Y/L180Q/S129P/T187R)
# Construct: expressed in transfected cells; host or cells: HMy2.CIR
# method summary: cell-based
# Assay type: binding
# measurement context: 24 h, read-out: 15μM Inhibition (%)
Residues, ends and D or L forms follow the SMILES beside them.

molecule	measurement target	inhibition at 15 µM
CSCC[C@H](NC(=O)[C@H](CC(N)=O)NC(=O)[C@@H](NC(=O)[C@H](CC(N)=O)NC(=O)[C@@H](NC(=O)[C@H](Cc1ccc(O)cc1)NC(=O)[C@@H](N)CO)C(C)C)[C@@H](C)O)C(=O)NCC(=O)N[C@@H](CC(C)C)C(=O)O [Epitope P22] (H-SYVNTNMGL-OH; N-terminus and C-terminus assumed)	HLA-A1101 (Homo sapiens, UniProt P04439, A114D/D185E/E176A/F33Y/L180Q/S129P/T187R)	16.2%
CC[C@H](C)[C@H](NC(=O)[C@H](Cc1c[nH]c2ccccc12)NC(=O)[C@@H](NC(=O)CNC(=O)[C@H](Cc1ccccc1)NC(=O)[C@H](CO)NC(=O)[C@@H](NC(=O)[C@H](CC(C)C)NC(=O)[C@@H](N)Cc1ccc(O)cc1)C(C)C)C(C)C)C(=O)O [Epitope P11]	HLA-A1101 (Homo sapiens, UniProt P04439, A114D/D185E/E176A/F33Y/L180Q/S129P/T187R)	20%
CC(C)C[C@H](NC(=O)[C@@H](N)Cc1ccccc1)C(=O)N1CCC[C@H]1C(=O)N[C@@H](CO)C(=O)N[C@@H](CC(=O)O)C(=O)N[C@@H](Cc1ccccc1)C(=O)N[C@@H](Cc1ccccc1)C(=O)N1CCC[C@H]1C(=O)N[C@@H](CO)C(=O)N[C@H](C(=O)O)C(C)C [Epitope P1]	HLA-A1101 (Homo sapiens, UniProt P04439, A114D/D185E/E176A/F33Y/L180Q/S129P/T187R)	5.95%
CC[C@H](C)[C@H](NC(=O)[C@H](CO)NC(=O)[C@@H]1CCCN1C(=O)[C@H](Cc1ccccc1)NC(=O)[C@H](Cc1ccccc1)NC(=O)[C@H](CC(=O)O)NC(=O)[C@H](CO)NC(=O)[C@@H]1CCCN1C(=O)[C@H](CC(C)C)NC(=O)[C@@H](N)Cc1ccccc1)C(=O)O [Epitope P31]	HLA-A1101 (Homo sapiens, UniProt P04439, A114D/D185E/E176A/F33Y/L180Q/S129P/T187R)	9.5%
CC[C@H](C)[C@H](NC(=O)[C@H](CO)NC(=O)[C@H](CO)NC(=O)[C@@H](NC(=O)[C@@H]1CCCN1C(=O)[C@@H](N)CO)[C@@H](C)CC)C(=O)N[C@@H](Cc1ccccc1)C(=O)N[C@@H](CO)C(=O)N[C@@H](CCCNC(=N)N)C(=O)O [Epitope P38] (H-SPISSIFSR-OH; N-terminus and C-terminus assumed)	HLA-A1101 (Homo sapiens, UniProt P04439, A114D/D185E/E176A/F33Y/L180Q/S129P/T187R)	14.6%

----------
# measurement target: HLA-A0207 (Homo sapiens, UniProt P04439, D140Y/D185E/D98H/E176V/E277Q/G131W/G231S/I119V/I121R/I166T/I218V/L300P/L318F/N151K/N90K/P208A/P217A/Q86G/Q94H/R138H/R169H/T345S/Y123C)
# Construct: expressed in transfected cells; host or cells: HMy2.CIR
# method summary: cell-based
# Assay type: binding
# measurement context: HLA-A0207 HMy2.CIR cells; competitor peptide 15μM; 24 hours; flow cytometry; read-out: 15μM Inhibition (%)
Residues, ends and D or L forms follow the SMILES beside them.
quantity: inhibition at 15 µM (%)

molecule	observed measurement
CC[C@H](C)[C@H](N)C(=O)N[C@@H](CC(C)C)C(=O)N[C@@H](CS)C(=O)N[C@@H](Cc1c[nH]c2ccccc12)C(=O)NCC(=O)N[C@@H](CCC(=O)O)C(=O)N[C@@H](CC(C)C)C(=O)N[C@@H](CCSC)C(=O)N[C@@H](CC(N)=O)C(=O)N[C@@H](CC(C)C)C(=O)O [Epitope P74] (H-ILCWGELMNL-OH; N-terminus and C-terminus assumed)	43
CSCC[C@H](NC(=O)[C@@H](N)CCSC)C(=O)N[C@@H](Cc1c[nH]c2ccccc12)C(=O)N[C@@H](Cc1ccccc1)C(=O)N[C@@H](Cc1c[nH]c2ccccc12)C(=O)NCC(=O)N1CCC[C@H]1C(=O)N[C@@H](CO)C(=O)N[C@@H](CC(C)C)C(=O)O [Epitope P71] (H-MMWFWGPSL-OH; N-terminus and C-terminus assumed)	59
CC(C)C[C@H](N)C(=O)N[C@@H](Cc1ccc(O)cc1)C(=O)N[C@@H](CO)C(=O)N[C@@H](CO)C(=O)N[C@H](C(=O)N[C@H](C(=O)N1CCC[C@H]1C(=O)N[C@H](C(=O)N[C@@H](Cc1ccccc1)C(=O)O)C(C)C)C(C)C)[C@@H](C)O [Epitope P56] (H-LYSSTVPVF-OH; N-terminus and C-terminus assumed)	36

----------
# measurement target: HLA-A3303 (Homo sapiens, UniProt P04439, A270S/D185E/E176V/E277Q/E87N/F33T/G231S/H175R/I121M/I218V/I322F/K168Q/L300P/L318F/M331R/P217A/Q86R/Q94H/R138Q/T323A/T345S/T97I/V358M)
# Construct: expressed in transfected cells; host or cells: HMy2.CIR
# method summary: cell-based
# Format: binding
# measurement context: HLA-A3303 HMy2.CIR cells; competitor peptide 5μM; 24 hours; flow cytometry; read-out: 5μM Inhibition (%)
Residues, ends and D or L forms follow the SMILES beside them.

compound	inhibition at 5 µM (%)
CC[C@H](C)[C@H](N)C(=O)N[C@@H](CC(C)C)C(=O)N[C@@H](CS)C(=O)N[C@@H](Cc1c[nH]c2ccccc12)C(=O)NCC(=O)N[C@@H](CCC(=O)O)C(=O)N[C@@H](CC(C)C)C(=O)N[C@@H](CCSC)C(=O)N[C@@H](CC(N)=O)C(=O)N[C@@H](CC(C)C)C(=O)O [Epitope P74] (H-ILCWGELMNL-OH; N-terminus and C-terminus assumed)	0
CC[C@H](C)[C@H](NC(=O)CNC(=O)[C@H](CC(C)C)NC(=O)[C@H](CO)NC(=O)[C@H](CC(C)C)NC(=O)[C@H](CC(C)C)NC(=O)[C@@H](N)Cc1ccccc1)C(=O)N[C@@H](Cc1c[nH]cn1)C(=O)N[C@@H](CC(C)C)C(=O)O [Epitope P10]	60.1
CC(C)C[C@H](N)C(=O)N[C@@H](Cc1ccc(O)cc1)C(=O)N[C@@H](CO)C(=O)N[C@@H](CO)C(=O)N[C@H](C(=O)N[C@H](C(=O)N1CCC[C@H]1C(=O)N[C@@H](CS)C(=O)N[C@@H](Cc1ccccc1)C(=O)O)C(C)C)[C@@H](C)O [Epitope P55] (H-LYSSTVPCF-OH; N-terminus and C-terminus assumed)	0

----------
# inhibition at 15 µM listing for each entry below
# measurement target: HLA-A2402 (Homo sapiens, UniProt P04439, D101N/D140Y/D185E/E176V/E190D/F33S/G103R/G107R/I119L/I121M/I306V/K335N/L105A/L180Q/L300P/N151K/N90K/Q86E/Q94H/R106L/R138H/R89G/T104I/T345S/V100E/W191G/Y123F)
# method summary: cell-based
# Assay type: binding
# measurement context: HLA-A2402 HMy2.CIR cells; competitor peptide 15μM; 24 hours; flow cytometry
# Protocol: HMy2.CIR cell line was purchased (Zhongqiao xinzhou Biotech, Shanghai) and maintained in complete IMDM medium with 10% FCS and 1% penicillin/streptomycin. […] The plate was centrifuged at 600 rpm for 5 min at room temperature (RT). […] Finally, cells were resuspended with 150 μL PBS and analyzed with flow cytometry. […] Binding affinity of unlabeled peptide with the indicated HLA-A molecule is assessed by IC50.
Residues, ends and D or L forms follow the SMILES beside them.

compound	inhibition at 15 µM [%]
CC[C@H](C)[C@H](N)C(=O)N[C@@H](CC(C)C)C(=O)N[C@@H](CS)C(=O)N[C@@H](Cc1c[nH]c2ccccc12)C(=O)NCC(=O)N[C@@H](CCC(=O)O)C(=O)N[C@@H](CC(C)C)C(=O)N[C@@H](CCSC)C(=O)N[C@@H](CC(N)=O)C(=O)N[C@@H](CC(C)C)C(=O)O [Epitope P74] (H-ILCWGELMNL-OH; N-terminus and C-terminus assumed)	11.1
CC(C)C[C@H](NC(=O)[C@H](Cc1ccc(O)cc1)NC(=O)[C@H](CCCCN)NC(=O)[C@@H](NC(=O)[C@@H](NC(=O)[C@H](CCCCN)NC(=O)[C@@H]1CCCN1C(=O)[C@H](Cc1ccc(O)cc1)NC(=O)[C@@H](N)Cc1ccccc1)C(C)C)[C@@H](C)O)C(=O)O [Epitope P25] (H-FYPKVTKYL-OH; N-terminus and C-terminus assumed)	83.6
CC[C@H](C)[C@H](NC(=O)[C@H](Cc1c[nH]cn1)NC(=O)[C@H](Cc1ccccc1)NC(=O)[C@@H](N)Cc1c[nH]c2ccccc12)C(=O)N[C@@H](CO)C(=O)N[C@@H](CS)C(=O)N[C@@H](CC(C)C)C(=O)N[C@H](C(=O)N[C@@H](Cc1ccccc1)C(=O)O)[C@@H](C)O [Epitope P52]	75.8
